Data provenance is paper PMC8949187.

Provide the reported Selectivity index, IC50 (non-cancer) / IC50 (cancer) of each item.
# System: non-cancer cell lines versus cancer cell lines
# procedureText: Selectivity index from MTT IC50s
# Type: cell-based, human
# conditions: mean IC50 non-cancer cell lines versus mean IC50 cancer cell lines; MTT
One number for each entry.

INSERT INTO assay_data (compound, valuereported) VALUES
  ('O=C1c2ccccc2-[n+]2ccc3c([nH]c4cc(Br)ccc43)c21', 1.41),
  ('O=C1c2cc(Br)ccc2-[n+]2ccc3c([nH]c4ccccc43)c21.[Cl-]', 1.34),
  ('O=C1c2cc(Br)ccc2-[n+]2ccc3c([nH]c4c(Br)cc(Br)cc43)c21.[Cl-]', 1.59),
  ('CCc1c[n+]2c(c3[nH]c4ccccc4c13)C(=O)c1ccccc1-2.[Cl-]', 0.92);

Below are some compounds; for each one, tell me its Selectivity index, IC50 (non-cancer) / IC50 (cancer).
1. N.N.[Cl][Pt][Cl] [Cis, Cisplatin, reference compound]
2. O=C1c2ccccc2-[n+]2c(-c3ccccc3)cc3c([nH]c4ccccc43)c21.[Cl-]
3. O=C1c2cc(Br)ccc2-[n+]2ccc3c([nH]c4ccc(Cl)cc43)c21.[Cl-]
4. O=C1c2ccccc2-[n+]2ccc3c([nH]c4ccc(Br)cc43)c21.[Cl-]

1: 1.23; 2: 1.74; 3: 2.58; 4: 3.65
